This collection of values is drawn from a protein production outcome set (Wang et al. 2014).

# Test method notes: label from the status in PepcDB records
Measured quantity: protein production

- Record sequence: "MGRDYQSEALAEQHLREAHLLAPDHAAVLIGLYRFYFYKGRLGEALEVAQACLCKAARDNGLASDWRKVRRGDAEFSSYSAVLPRFYLFALKAYAYLQMRLGQLDEGHAAVEKLLELDPTDKVGAAVLLDVWRRIGLEHHHHHH"
  Result: "failed"
- Record sequence: "SLHEEADHRVTDHGPRPFVVNIEDETKRNRAFRRALWTGDHLQVTLMSIQVGEDIGLEIHPHLDQFLRVEEGRGLVQMGHRQDNLHFQEEVFDDYAILIPAGTWHNVRNTGNRPLKLYSIYAPPQHPHGTVHETKAIAMAAEEHHHL"
  Result: "not failed"
- Record sequence: "MSLTRNRTVALAIIDMQNDFVLPGAPACVEGAMGTVPVIAGLLAKARAEGWMVLHVVRAHRADGSDAEKSREHLFLEGGGLCVAGTPGAEIVAGLEPASGETVLVKTRFSAFMGTECDMLLRRRGVDTLLVSGTQYPNCIRGTAVDAFALDYDVVVVTDACSARTPGVAESNINDMRAMGITCVPLTALDDVLARREGHHHHHH"
  Result: "not failed"
- Record sequence: "MGTPAERWERARMFFDAKDYAAAARVLDGLVAQVPEQTGPRLLLARSYYHSAQLRRAEAELRVVVERDPVEHYARLMLGRTLERQGRQEEADAQLRIASALAGLEHHHHHH"
  Result: "failed"
- Record sequence: "GSSGSSGMSNTTWGLQRDITPRLGARLVQEGNQLHYLADRASITGKFSDAECPKLDVVFPHFISQIESMLTTGELNPRHAQCVTLYHNGFTCEADTLGSCGYVYIAVYPTQR"
  Result: "not failed"

* * *

# Test method notes: label from the status in PepcDB records
Measured quantity: protein production

- Record sequence: "MLFYLYVTRCKQLLNYNNMETDNGDKEKSEEDDLCALKDALEAVILFQGLSEYQKKLMFPNLKNLGAETIKELIDEWKELNVEELNLNIKKQTFFTKFANASWSLMLLIQQENNFCFWMFYVIPTSLFFVCCVLLHLLNDGS"
  Result: "failed"
- Record sequence: "MFENTLVVIKGAGDIATGVGRRLFRCGFPLVMTEQLQPTPVRRTVAFAEAVYKGETTVEGVTARLIEDPAHVYSTLREGHIPIIPDPEAHIIRVLNPKVVVDAILAKKNLGTAKSNAPIVIGLGPGFTAGKDVHAVIETNRGHNLGRVILNGSAEPNTGVPGVVNGYGSERVLRSPADGAIVPIREIGDFLLKGDVIAVVEGEPVVAPFDGTLRGLVHEKVTVFKGMKIGDVDPRASREHCYTISDKALAISGGVLEAILSHRHVITE"
  Result: "failed"
- Record sequence: "MKRMLAWLYAPLVFAGFIGAGVWWMSAGPASASGLLGVFGAALGVSFLAEWCLPYEPGWNRSQGDRLRDSLHALVNESLNALGLLALPGLVALLAHDGLWPQGWPLWGQLLLAIVIADCGITLAHYASHRLAWLWRLHAVHHSVQRMYGFNGLLKHPLHQLIEASAGLLPLVLLGIPLPVAQLLALAIAVQLLLQHSNVDMRLGPLRWIFAWAPVHRFHHMKYGRAGDVNFGLFFNLWDWLLGTAFYRDDYCMRQGDLGIGSRADYPVDYWPQLLEPFKAQRYGAEPVVPEQLRRRVRPASEA"
  Result: "failed"
- Record sequence: "MDKNEIGLNAGKVWQLLSNNDKWSYGNLKKKSGLKDKDLGAALGWLAREDKIEFEQEEEELYVYLCVNVYIGLEHHHHHH"
  Result: "failed"
- Record sequence: "MPGESNIIEWPASRVRVISGASWSRNGQILSGRCKANNGTWFGITKGGRVAFLVNTSLLLDRVKSYSGSELYPVRFLEGNMSPEQFANEVKVHEKETNERHAYSLVVADMTSSSMVHILKPSDTKSDVVIETVPFGVHTLSSYEGLDSTDSARDLLLRRLFTQMVGNLGNVQQRQMEEIAGRFMYDAQAGRDAVFYHSRDEHPNGKLGTQRFGTTSTTALVVKRTREVMLFEKYMEQNGAWNTNNFAFNIQKQQKLYPNLDKEALKRVGVFALEEVNNHEHDIHPDLMPSFFEDDMLKVKFNEMIARHAKLPPIKNIVEDLMMKSPFFIDSVDGAGKKVRYRTVRTLGMDIKANRPQGRFYERHLNDNGEWVG"
  Result: "failed"
- Record sequence: "MSKPAITLWSDAHFFSPYVLSAWVALQEKGLSFHIKTIDLDSGEHLQPTWQGYGQTRRVPLLQIDDFELSESSAIAEYLEDRFAPPTWERIYPLDLENRARARQIQAWLRSDLMPIREERPTDVVFAGAKKAPLTAEGKASAEKLFAMAEHLLVLGQPNLFGEWCIADTDLALMINRLVLHGDEVPERLVDYATFQWQRASVQRFIALSAKQSG"
  Result: "not failed"
- Record sequence: "QAELMTLTIVKGAQGFGFTIADSPTGQRVKQILDIQGCPGLCEGDLIVEINQQNVQNLSHTEVVDILKDCPIGSETSLIIHRG"
  Result: "not failed"
- Record sequence: "MQPDTQEIVVDEVFPHAPETIWKTLTTAELMGRWLMMPAGFEPIEGKRFTYQTTPAGDWDGTIHCQVLEVKPNERLTYAWKGGHAGNTGYGSPLDTVVTFILSRAGNGTRLRLVHSGFVLPKNETAYRKMGEGWKKVVKNIGALAGGEDLEHHHHHH"
  Result: "failed"
- Record sequence: "MAGRVHPRQLAFSLPHAESLSRDNFLEGPANAAGLALIDGWPEWPNRIMWLAGPEGSGKSHLAAIWAEEAGARSTTANALSAAGVPGALATGALVVEDLKAKDFDERALFHLMNLAREDGAYVLFTGRDVPAALDIELNDLRSRLRAVPVVMLLPPDDQLFRGLIVKFCADRQLTVDESVVSYLATRLERSSAAARQAVELLDSEALRLGRPVTRALAAELLRDALEHHHHHH"
  Result: "not failed"
- Record sequence: "MIMMENDRISDFFIVAFIFSWVLWIPVAMVSAGFSFPQPLQAFLESPYNPAAFGPTLAAVLLSYRYGGRDELLALLRKGVNYDFHRIWWPVILLFFPVLTAVALYLGVLWGDPQPYLYWTSQPLMVIMVFIYIFFLGGPLQEEFGWRGYALPRLQRRYSPIYAALIIGFIWGLWHIPLFFIGGSIQSQVPFWSFMILIISASVIYTWVYNSTGSILATMIIHTTGNLSYFLFPVQGTLAGGIFLMILNVAAALAVMLFAGSELKTDFGGQGH"
  Result: "failed"
- Record sequence: "MKNRETDSNVVTLYVTRHGKTILNTNHRAQGWADSPLVEKGVEVATNLGTGLKDIHFMNAYSSDSGRAIETANLVLKYSEQSKLKLEQRKKLRELNFGIFEGEKLDNMWDAVGKAAGVTSPEELLKFSIQEVIDLIRAADPTKQAEDWELFSTRIKAEIDKISEEAAKDGGGNVLVVVHGLLITTLIEMLDSSKTKLGVENASVTKIVYQDGIYTVESVGDMSYVAKGKESVEI"
  Result: "not failed"
- Record sequence: "MLLEPLKQLKQADARLNMTQGVLEGVVGEELGVLPGMDSIFSMLELERLVGFFRQATRKNHKGKPFDVIIYDGISTEETLRMIGLSSKTRLYAKYLRSLAEKTDLGRLTSPSIMRFVDESMNINSNKSPFDGMTSPAMWDTLERFLETGASAWRDPERFRSFLVMDPNNPMSVKAALRYWGCTVQAGSHVSGAFAISSSHLTSQIPKADFVPLPFASASVPFTITGLDWDKILLDQANSSIRELLSETVSHGTSLTQTVMFDTAKKLVTLFMPGFEKSEIKLYQYRGGSELLIEAGDQRRVIHLPSQIQGKVGGAKFVDRSLIVTMR"
  Result: "failed"
- Record sequence: "MTAMMTILGPVLMGAAFGFLLQRGKVTNCNVIENQFRLRDFTVLKVMGTAIVVGGIGVLLLVDTGNTKYYVKDANMLAIALGAALFGIGMVVYGYCPGTALGAIATGSIHALVGALGMVAGAILYALSFDWLKAHVLNVWALGKVRLPDVTNIPDIIWFAALAVGAGLFFWWIESVEAEQKRM"
  Result: "failed"

* * *

# Test method notes: label from the status in PepcDB records

- Record sequence: "MPPPLPYDAMRSVWTDTAAPAMATAPLAGHADCDVAIVGAGITGLSAALHLAERGLRACVLEARDPGWGASGRNGGQVIPGIKHDPDEILARHGRERGEPLLHMVGTAADTVFDLIDRYGLDLVQAQIRLAAGERLDRVVPADLQPSGHAIELRVYAEDPVRFIPSPGTLAVFELPQGPGVRTETGYHAGNAVSPHYDPMIAKIIVHGADRAQAIARAEQALADTEIAGVKTNLPFLARALAFEPWRQGRLHTGIVARTLAEPAPAALTALEHHHHHH"
  protein production: "failed"
- Record sequence: "MNHEAVQNYYGEVLQSSADLQTNACCTPDAVPAHLKPVLGKLHDEVMARYYGCGLIAPLALEGARILDLGCGAGRDVYALSALVGESGAVVGVDMTPAQLEVAQAHRAYHAEVFGHAAPNTEFHQGYIEKLDDLPLKPGSFDIIVSNCVLNLATDKAAVLRGAQRLLKPGGEMYFSDVYADRRIPEALARDEVLYGECLSGALYWNDFLSLARGAGFGDPRMVESRLLTIENPELERRVGPIRFLSATYRLFNLAGLEPDCEDYGQAVIYKGTVPHAPHEFVLDDHHVIETGKVFPVCGNSWRMLAESRFAPHFQFIGDFSTHYGIFAGCGGASPFNGLSPVAPAASGGCC"
  protein production: "failed"
